molecular target: NT-3 growth factor receptor (Homo sapiens); conditions: at 0.1 µM;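 further: mean percent inhibition of TRKC, reported within the GSK PKIS dataset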
Some compounds, each annotated with its measured inhibition.
Please state the figure in %; there is no need to write the unit.

Use these answered entries as a reference point.
>  <SMILES_DATA>
CS(=O)(=O)CCNCc1ccoc1-c1ccc2ncnc(Nc3ccc(OCc4ccccc4)cc3)c2c1

>  <inhibition / %>
2.02

$$$$
>  <SMILES_DATA>
O=C(O[C@H]1CN[C@H](C#Cc2cc3ncnc(Nc4ccc(OCc5cccc(F)c5)c(Cl)c4)c3s2)C1)N1CCOCC1

>  <inhibition / %>
2.99

$$$$
>  <SMILES_DATA>
O=C(O[C@H]1CN[C@H](C#Cc2cc3ncnc(Nc4ccc5c(ccn5Cc5cc(F)ccc5F)c4)c3s2)C1)N1CCOCC1

>  <inhibition / %>
2.18

$$$$
>  <SMILES_DATA>
Cc1cc(O)cc(C)c1/C=C/c1cncc(C(N)=O)c1

>  <inhibition / %>
1.25

$$$$
>  <SMILES_DATA>
CCN1CCC(C(=O)Nc2n[nH]c3nnc(-c4cccc(F)c4F)cc23)CC1

>  <inhibition / %>
2.09

$$$$
>  <SMILES_DATA>
CN(c1ccc(NC(=O)NCCN2CCOCC2)cc1)c1ccnc(Nc2ccc(CS(C)(=O)=O)cc2)n1

>  <inhibition / %>
1.78

$$$$
>  <SMILES_DATA>
COc1cc2c(cc1Nc1nc(Nc3cccc(F)c3C(N)=O)c3cc[nH]c3n1)N(C(=O)CN1CCN(C(C)C)CC1)CC2

>  <inhibition / %>
-1.97

$$$$
>  <SMILES_DATA>
COc1cc(N2CCN(C(C)C)CC2)ccc1Nc1nc(Nc2cccc3ncccc23)c2cc[nH]c2n1

>  <inhibition / %>
0.87

$$$$

Moving on to another compound below.
// inhibition value for "Cc1ccc(-c2cc3c(NC(=O)C4CC4)ncnc3o2)cc1" : 2.91

====

biological target: Tyrosine-protein kinase Fes/Fps (Homo sapiens) (UniProt P07332); settings: at 0.1 µM
Sequence (P07332 whole entry): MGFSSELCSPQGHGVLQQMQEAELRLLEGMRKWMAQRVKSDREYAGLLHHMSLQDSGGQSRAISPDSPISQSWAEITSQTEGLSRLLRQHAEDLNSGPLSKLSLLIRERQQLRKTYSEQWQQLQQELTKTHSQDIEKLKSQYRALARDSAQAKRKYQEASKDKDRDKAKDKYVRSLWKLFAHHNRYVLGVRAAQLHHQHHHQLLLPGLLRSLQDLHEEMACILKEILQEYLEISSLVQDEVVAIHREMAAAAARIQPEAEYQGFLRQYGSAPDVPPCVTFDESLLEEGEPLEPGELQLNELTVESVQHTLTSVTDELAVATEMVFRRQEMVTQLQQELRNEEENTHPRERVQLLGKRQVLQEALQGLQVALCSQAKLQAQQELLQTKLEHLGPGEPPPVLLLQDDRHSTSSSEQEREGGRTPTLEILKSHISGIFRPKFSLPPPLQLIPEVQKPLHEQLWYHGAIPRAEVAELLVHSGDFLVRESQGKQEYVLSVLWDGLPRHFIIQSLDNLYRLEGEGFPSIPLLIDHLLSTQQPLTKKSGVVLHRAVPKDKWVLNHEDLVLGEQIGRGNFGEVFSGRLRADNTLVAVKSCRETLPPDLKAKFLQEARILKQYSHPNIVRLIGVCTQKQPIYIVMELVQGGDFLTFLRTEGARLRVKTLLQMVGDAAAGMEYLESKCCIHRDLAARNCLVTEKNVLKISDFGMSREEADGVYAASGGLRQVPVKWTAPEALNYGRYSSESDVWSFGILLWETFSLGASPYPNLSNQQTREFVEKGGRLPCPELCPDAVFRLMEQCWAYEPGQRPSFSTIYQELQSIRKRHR
Description: GSK_PKIS: FES mean inhibition at 0.1 uM [Nanosyn]
Some molecules, each annotated with its measured inhibition.
Please state the figure in %; there is no need to write the unit.

>  <SMILES_DATA>
CN(C)CCNC(=O)Nc1ccc(N(C)c2ccnc(Nc3ccc(CS(C)(=O)=O)cc3)n2)cc1

>  <MEASURED_ON>
Tyrosine-protein kinase Fes/Fps (Homo sapiens) (UniProt P07332)

>  <inhibition / %>
3.36

$$$$
>  <SMILES_DATA>
CC1(C)CC(n2cnc(-c3ccc(F)cc3)c2-c2ccnc(N)n2)CC(C)(C)N1

>  <MEASURED_ON>
Tyrosine-protein kinase Fes/Fps (Homo sapiens) (UniProt P07332)

>  <inhibition / %>
-0.11

$$$$
>  <SMILES_DATA>
Fc1ccc(Nc2nccc(-c3c(-c4ccc(C(F)(F)F)cc4)nn4ncccc34)n2)cc1F

>  <MEASURED_ON>
Tyrosine-protein kinase Fes/Fps (Homo sapiens) (UniProt P07332)

>  <inhibition / %>
3.21

$$$$
>  <SMILES_DATA>
Cc1nnc(-c2cccc(-c3ccc(C(=O)NCC4CC4)cc3)c2)o1

>  <MEASURED_ON>
Tyrosine-protein kinase Fes/Fps (Homo sapiens) (UniProt P07332)

>  <inhibition / %>
4.04

$$$$
>  <SMILES_DATA>
O=C(O[C@H]1CN[C@H](C#Cc2cc3ncnc(Nc4ccc(OCc5cccc(F)c5)c(Cl)c4)c3s2)C1)N1CCOCC1

>  <MEASURED_ON>
Tyrosine-protein kinase Fes/Fps (Homo sapiens) (UniProt P07332)

>  <inhibition / %>
3.88

$$$$

// inhibition value for "CN(c1ccc(NC(=O)NCCN2CCOCC2)cc1)c1ccnc(Nc2ccc(CS(C)(=O)=O)cc2)n1" : 2.04

====

molecular target: Testis-specific serine/threonine-protein kinase 1 (Homo sapiens); details: at 0.1 µM;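 further: mean percent inhibition of TSSK1, from the GSK PKIS screening dataset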
Some molecules, each annotated with its measured inhibition.
The number alone won't do; follow it with the unit.

Use these answered entries as a reference point.
>  <MOLECULE>
Cc1c2ccc(N(C)c3ccnc(Nc4cccc(S(N)(=O)=O)c4)n3)cc2nn1C

>  <inhibition>
3.59%

$$$$
>  <MOLECULE>
NS(=O)(=O)c1cccc(N/C=C2\C(=O)Nc3ccccc32)c1

>  <inhibition>
4.45%

$$$$
>  <MOLECULE>
CCCNc1cccc(-n2ncc3c(N/N=C/c4ccncc4)ncnc32)c1

>  <inhibition>
1.42%

$$$$
>  <MOLECULE>
NC(=O)c1ccc2c(-c3ccnc(NCCCO)n3)c(-c3ccc(F)cc3)nn2c1

>  <inhibition>
3.95%

$$$$

Moving on to another molecule below.
// inhibition value for "COc1cccc(Nc2nccc(-c3cnn4ncccc34)n2)c1" : 2.07%

====

target: Serine/threonine-protein kinase Sgk1 (Homo sapiens); details: at 1 µM;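 further: mean percent inhibition of SGK1, from the GSK PKIS screening panel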
Some molecules, each annotated with its measured inhibition.
Please state the figure in %; there is no need to write the unit.

Use these answered entries as a reference point.
>  <SMILES_DATA>
Cc1cc(O)cc(C)c1/C=C/c1cncc(C(=O)OC(C)(C)C)c1

>  <QUANTITY_UNIT>
%

>  <inhibition>
2.22

$$$$
>  <SMILES_DATA>
COc1c(C(N)=O)cc(-c2ccc(Cl)cc2)cc1-c1ccc(S(N)(=O)=O)cc1

>  <QUANTITY_UNIT>
%

>  <inhibition>
2.71

$$$$
>  <SMILES_DATA>
Fc1cccc(COc2ccc(Nc3ncncc3C#Cc3ccccc3)cc2Cl)c1

>  <QUANTITY_UNIT>
%

>  <inhibition>
7.69

$$$$
>  <SMILES_DATA>
Fc1ccc(Nc2nccc(-c3c(-c4ccc(C(F)(F)F)cc4)nn4ncccc34)n2)cc1F

>  <QUANTITY_UNIT>
%

>  <inhibition>
2.25

$$$$
>  <SMILES_DATA>
CCN1CCC(C(=O)Nc2n[nH]c3nnc(-c4cccc(F)c4F)cc23)CC1

>  <QUANTITY_UNIT>
%

>  <inhibition>
1.25

$$$$

Here "O=C1Nc2ccccc2/C1=C1\CCc2cc(O)ccc21" was tested on Serine/threonine-protein kinase Sgk1 (Homo sapiens), and its inhibition came to 19.2

====

target: Cyclin-dependent kinase 1 (Homo sapiens); details: at 0.1 µM;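 further: enzyme assay on the CDK1/cyclin B complex, reported as mean percent inhibition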
Some compounds, each annotated with its measured inhibition.
Please state the figure in %; there is no need to write the unit.

>  <SMILES_DATA>
CS(=O)(=O)CCNCc1ccoc1-c1ccc2ncnc(Nc3ccc(OCc4ccccc4)cc3)c2c1

>  <READOUT_LABEL>
inhibition

>  <MEASURED_VALUE>
-0.72

$$$$
>  <SMILES_DATA>
O=C(O[C@H]1CN[C@H](C#Cc2cc3ncnc(Nc4ccc5c(ccn5Cc5cc(F)ccc5F)c4)c3s2)C1)N1CCOCC1

>  <READOUT_LABEL>
inhibition

>  <MEASURED_VALUE>
-0.04

$$$$
>  <SMILES_DATA>
CS(=O)(=O)CCNCc1ccc(-c2ccc3ncnc(Nc4ccc(OCc5ccccc5)cc4)c3c2)o1

>  <READOUT_LABEL>
inhibition

>  <MEASURED_VALUE>
0.68

$$$$
>  <SMILES_DATA>
COc1cc(Nc2ncc(-c3ccccc3)o2)cc(OC)c1

>  <READOUT_LABEL>
inhibition

>  <MEASURED_VALUE>
0.36

$$$$

Here "CCS(=O)(=O)c1ccc(OC)c(Nc2ncc(-c3cccc(C(C)=O)c3)o2)c1" was tested on Cyclin-dependent kinase 1 (Homo sapiens), and its inhibition came to 0.64

Here "OCCCNc1nccc(-c2c(-c3ccc(F)cc3)nn3cc(C(F)(F)F)ccc23)n1" was tested on Cyclin-dependent kinase 1 (Homo sapiens), and its inhibition came to 1.54

Here "COc1ccc(-c2nn3ncccc3c2-c2ccnc(Nc3ccc(F)c(F)c3)n2)cc1" was tested on Cyclin-dependent kinase 1 (Homo sapiens), and its inhibition came to -0.93

Here "COc1ccc2ncn(-c3cc(O[C@H](C)c4ccccc4C(F)(F)F)c(C(N)=O)s3)c2c1" was tested on Cyclin-dependent kinase 1 (Homo sapiens), and its inhibition came to 0.65

====

molecular target: Phosphorylase b kinase gamma catalytic chain, skeletal muscle/heart isoform (Homo sapiens); settings: at 1 µM
READOUT_LABEL: inhibition (%)
Please state the figure in %; there is no need to write the unit.

>  <SMILES_DATA>
CS(=O)(=O)Nc1ccc(-c2cc(-c3ccccc3)cc(C(N)=O)c2N)cc1

>  <MEASURED_ON>
Phosphorylase b kinase gamma catalytic chain, skeletal muscle/heart isoform (Homo sapiens)

>  <inhibition [%]>
4.26

$$$$
>  <SMILES_DATA>
CC1(C)CC(n2cnc(-c3ccc(F)cc3)c2-c2ccnc(N)n2)CC(C)(C)N1

>  <MEASURED_ON>
Phosphorylase b kinase gamma catalytic chain, skeletal muscle/heart isoform (Homo sapiens)

>  <inhibition [%]>
2.36

$$$$
>  <SMILES_DATA>
Cn1c(-c2nonc2N)nc2cnccc21

>  <MEASURED_ON>
Phosphorylase b kinase gamma catalytic chain, skeletal muscle/heart isoform (Homo sapiens)

>  <inhibition [%]>
0.15

$$$$
>  <SMILES_DATA>
CCN1CCC(C(=O)Nc2n[nH]c3nnc(-c4cccc(F)c4F)cc23)CC1

>  <MEASURED_ON>
Phosphorylase b kinase gamma catalytic chain, skeletal muscle/heart isoform (Homo sapiens)

>  <inhibition [%]>
4.68

$$$$
>  <SMILES_DATA>
FC(F)(F)CNc1nccc(-c2cnn3ncccc23)n1

>  <MEASURED_ON>
Phosphorylase b kinase gamma catalytic chain, skeletal muscle/heart isoform (Homo sapiens);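 further: each value is a mean percent inhibition of PHKG1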

>  <inhibition [%]>
6.43

$$$$

Moving on to another molecule below.
Here "COc1cc(N2CCN(C(C)C)CC2)ccc1Nc1nc(Nc2cccc(F)c2C(=O)O)c2cc[nH]c2n1" was tested on Phosphorylase b kinase gamma catalytic chain, skeletal muscle/heart isoform (Homo sapiens), and its inhibition came to 39.8
